Answer each item with its documented z-score of subpopulation abundance.
Test system: Saccharomyces cerevisiae BY4741 SeMeCo community
measurement-notes: z-score of subpopulation abundance vs DMSO median, subpopulation auxotrophic for LU; higher = larger share of this subpopulation than in DMSO controls
condition-description: 10 µM; 24 h; SM minimal medium; subpopulation (auxotrophy): LU
Counter-ions that a name gives are not always drawn.
Give the value as a plain number.

query: So what's the measured z-score of subpopulation abundance for this one? Cc1ccc(C(=O)C(C)CN2CCCCC2)cc1 (configuration not stated) [Tolperisone HCl]
result: -0.75

query: So what's the measured z-score of subpopulation abundance for this one? CO/N=C(\C(=O)N[C@@H]1C(=O)N2C(C(=O)OC(C)OC(C)=O)=C(COC(N)=O)CS[C@H]12)c1ccco1 (some centres not stated)
result: -0.86

query: So what's the measured z-score of subpopulation abundance for this one? CS(=O)(=O)c1ccc([C@@H](O)[C@@H](CO)NC(=O)C(Cl)Cl)cc1
result: 0.67

query: So what's the measured z-score of subpopulation abundance for this one? COc1ccc2c(c1)c(CC(=O)O)c(C)n2C(=O)c1ccc(Cl)cc1
result: -0.17

query: So what's the measured z-score of subpopulation abundance for this one? O=C(Cn1cnnn1)N[C@@H]1C(=O)N2C(C(=O)O)=C(CSc3nncs3)CS[C@H]12 [Ceftezole]
result: 0.9

query: So what's the measured z-score of subpopulation abundance for this one? N=C(N)NS(=O)(=O)c1ccc(N)cc1
result: -0.67

query: So what's the measured z-score of subpopulation abundance for this one? COc1ccc(Cc2cnc(N)nc2N)cc1OC
result: -0.41

query: So what's the measured z-score of subpopulation abundance for this one? NC(=O)N1c2ccccc2CC(=O)c2ccccc21 [Oxcarbazepine]
result: -0.37

query: So what's the measured z-score of subpopulation abundance for this one? Nc1nc2c(ncn2COC(CO)CO)c(=O)[nH]1
result: -0.06

query: So what's the measured z-score of subpopulation abundance for this one? Clc1ccc(COC(Cn2ccnc2)c2ccc(Cl)cc2Cl)c(Cl)c1 (configuration not stated)
result: 4.36

query: So what's the measured z-score of subpopulation abundance for this one? N[C@H]1CONC1=O
result: 1.02

query: So what's the measured z-score of subpopulation abundance for this one? Cc1cc(-c2ccc(/N=N/c3ccc4c(S(=O)(=O)O)cc(S(=O)(=O)O)c(N)c4c3O)c(C)c2)ccc1/N=N/c1ccc2c(S(=O)(=O)O)cc(S(=O)(=O)O)c(N)c2c1O
result: 4.41

query: So what's the measured z-score of subpopulation abundance for this one? CCCNC(C)C(=O)Nc1ccccc1C (configuration not stated) [Prilocaine hydrochloride]
result: 1.11

query: So what's the measured z-score of subpopulation abundance for this one? Cn1nnnc1SCC1=C(C(=O)O)N2C(=O)[C@@H](NC(=O)[C@H](OC=O)c3ccccc3)[C@H]2SC1 [Cefamandole nafate]
result: -1.46

query: So what's the measured z-score of subpopulation abundance for this one? OC(CCCN1CCCCC1)(c1ccccc1)c1ccccc1 [Diphenidol HCl]
result: 0.23

query: So what's the measured z-score of subpopulation abundance for this one? COc1cc2c(cc1OC)[C@@H]1Cc3ccc(OC)c(OC)c3CN1CC2
result: 0.16

query: So what's the measured z-score of subpopulation abundance for this one? C/C(=C\C(=O)OCCCCCCCCC(=O)O)C[C@@H]1OC[C@H](C[C@@H]2O[C@H]2[C@@H](C)[C@H](C)O)[C@@H](O)[C@H]1O
result: 0.56

---

Tested on: Saccharomyces cerevisiae BY4741 SeMeCo community
measurement-notes: z-score of subpopulation abundance vs DMSO median, subpopulation auxotrophic for L; higher = larger share of this subpopulation than in DMSO controls
condition-description: 10 µM; 24 h; SM minimal medium; subpopulation (auxotrophy): L
Structures can show the parent of a compound that is named as a salt.
Answer each item with its documented z-score of subpopulation abundance.
Give the value as a plain number.

query: So what's the measured z-score of subpopulation abundance for this one? CN(C)CCC[C@@]1(c2ccc(F)cc2)OCc2cc(C#N)ccc21 [Escitalopram Oxalate]
result: 0.5

query: So what's the measured z-score of subpopulation abundance for this one? NCc1ccccc1CC(=O)N[C@@H]1C(=O)N2C(C(=O)O)=C(CSc3nnnn3CC(=O)O)CS[C@H]12 [Ceforanide]
result: 2.29

query: So what's the measured z-score of subpopulation abundance for this one? COc1c(N2CCNC(C)C2)c(F)cc2c(=O)c(C(=O)O)cn(C3CC3)c12 (stereo not drawn) [Gatifloxacin]
result: -0.51

query: So what's the measured z-score of subpopulation abundance for this one? Fc1ccc([C@@H]2CCNC[C@H]2COc2ccc3c(c2)OCO3)cc1 [Paroxetine mesylate]
result: 0.03

query: So what's the measured z-score of subpopulation abundance for this one? CN(Cc1cnc2nc(N)nc(N)c2n1)c1ccc(C(=O)N[C@@H](CCC(=O)O)C(=O)O)cc1 [Methotrexate]
result: -0.82

query: So what's the measured z-score of subpopulation abundance for this one? CO/N=C(\C(=O)N[C@@H]1C(=O)N2C(C(=O)O)=CCS[C@H]12)c1csc(N)n1 [Ceftizoxime]
result: -0.19

query: So what's the measured z-score of subpopulation abundance for this one? CC(=O)N[C@H]1[C@H]([C@H](O)[C@H](O)CO)OC(C(=O)O)=C[C@@H]1NC(=N)N [Zanamivir]
result: 1.27

query: So what's the measured z-score of subpopulation abundance for this one? COc1ccc2c3c1O[C@H]1C[C@@H](O)C=C[C@@]31CCN(C)C2 [Galanthamine]
result: 0.78

---

System: Saccharomyces cerevisiae BY4741 SeMeCo community
measurement-notes: z-score of subpopulation abundance vs DMSO median, subpopulation auxotrophic for HLU; higher = larger share of this subpopulation than in DMSO controls
condition-description: 10 µM; 24 h; SM minimal medium; subpopulation (auxotrophy): HLU
Where a name gives a salt, the structure may show the parent alone.
quantity-measured: z-score of subpopulation abundance
Give the value as a plain number.

query: So what's the measured z-score of subpopulation abundance for this one? CCCCCOc1ccc(-c2ccc(-c3ccc(C(=O)N[C@H]4C[C@@H](O)[C@@H](O)NC(=O)[C@@H]5[C@@H](O)[C@@H](C)CN5C(=O)[C@H]([C@@H](C)O)NC(=O)[C@H]([C@H](O)[C@@H](O)c5ccc(O)cc5)NC(=O)[C@@H]5C[C@@H](O)CN5C(=O)[C@H]([C@@H](C)O)NC4=O)cc3)cc2)cc1
result: 21.5

query: So what's the measured z-score of subpopulation abundance for this one? Cc1nccn1CC1CCc2c(c3ccccc3n2C)C1=O (stereo not given) [Ondansetron HCl]
result: -0.69

query: So what's the measured z-score of subpopulation abundance for this one? NC(CO)(CO)CO [Trometamol]
result: -0.13

query: So what's the measured z-score of subpopulation abundance for this one? CNCc1cc(-c2ccccc2F)n(S(=O)(=O)c2cccnc2)c1 [Vonoprazan Fumarate (TAK-438)]
result: -0.64

query: So what's the measured z-score of subpopulation abundance for this one? CO[C@H]1C[C@@H]2CC[C@@H](C)[C@@](O)(O2)C(=O)C(=O)N2CCCC[C@H]2C(=O)O[C@H]([C@H](C)C[C@@H]2CC[C@@H](OP(C)(C)=O)[C@H](OC)C2)CC(=O)[C@H](C)/C=C(\C)[C@@H](O)[C@@H](OC)C(=O)[C@H](C)C[C@H](C)/C=C/C=C/C=C/1C [Ridaforolimus (Deforolimus, MK-8669)]
result: 23.1

---

System: Saccharomyces cerevisiae BY4741 SeMeCo community
measurement-notes: z-score of subpopulation abundance vs DMSO median, subpopulation auxotrophic for M; higher = larger share of this subpopulation than in DMSO controls
condition-description: 10 µM; 24 h; SM minimal medium; subpopulation (auxotrophy): M
Structures can show the parent of a compound that is named as a salt.
Answer each item with its documented z-score of subpopulation abundance.
Give the value as a plain number.

query: So what's the measured z-score of subpopulation abundance for this one? C[C@]1(Cn2ccnn2)[C@H](C(=O)O)N2C(=O)C[C@H]2S1(=O)=O [Tazobactam]
result: -0.32

query: So what's the measured z-score of subpopulation abundance for this one? Cc1ncc([N+](=O)[O-])n1CCO [Metronidazole]
result: 0.32

query: So what's the measured z-score of subpopulation abundance for this one? CO/N=C(\C(=O)N[C@@H]1C(=O)N2C(C(=O)O)=CCS[C@H]12)c1csc(N)n1 [Ceftizoxime sodium]
result: 1.04

query: So what's the measured z-score of subpopulation abundance for this one? CN[C@@H]1[C@@H](O)[C@@H](O[C@@H]2[C@@H](O)[C@H](O[C@H]3OC(CN)=CC[C@H]3N)[C@@H](N)C[C@H]2N)OC[C@]1(C)O [Sisomicin sulfate]
result: 1.6

---

System: Saccharomyces cerevisiae BY4741 SeMeCo community
measurement-notes: z-score of subpopulation abundance vs DMSO median, subpopulation auxotrophic for H; higher = larger share of this subpopulation than in DMSO controls
condition-description: 10 µM; 24 h; SM minimal medium; subpopulation (auxotrophy): H
Counter-ions that a name gives are not always drawn.
Everything with z-score of subpopulation abundance lower than -0.01 is label 0; everything else, including exactly -0.01, is label 1.

query: Quick check: does Nc1ccc2cc3ccc(N)cc3nc2c1 [Proflavine Hemisulfate] have z-score of subpopulation abundance greater than or equal to -0.01?
result: label 1

query: Quick check: does O=c1[nH]c(=O)n([C@H]2C[C@H](O)[C@@H](CO)O2)cc1/C=C/Br [Brivudine] have z-score of subpopulation abundance greater than or equal to -0.01?
result: label 0

query: Quick check: does Cc1ccc(Nc2c(F)cccc2Cl)c(CC(=O)O)c1 [Lumiracoxib] have z-score of subpopulation abundance greater than or equal to -0.01?
result: label 0

query: Quick check: does Cc1ccc(O)c([C@H](CCN(C(C)C)C(C)C)c2ccccc2)c1 [Tolterodine tartrate] have z-score of subpopulation abundance greater than or equal to -0.01?
result: label 0
